Source: ChEMBL document CHEMBL1961873

Biological target: Activated CDC42 kinase 1 (Homo sapiens) (UniProt Q07912);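 also: values are mean inhibition of TNK2, from the GSK PKIS screening dataset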
Sequence (Q07912 whole entry, looked up): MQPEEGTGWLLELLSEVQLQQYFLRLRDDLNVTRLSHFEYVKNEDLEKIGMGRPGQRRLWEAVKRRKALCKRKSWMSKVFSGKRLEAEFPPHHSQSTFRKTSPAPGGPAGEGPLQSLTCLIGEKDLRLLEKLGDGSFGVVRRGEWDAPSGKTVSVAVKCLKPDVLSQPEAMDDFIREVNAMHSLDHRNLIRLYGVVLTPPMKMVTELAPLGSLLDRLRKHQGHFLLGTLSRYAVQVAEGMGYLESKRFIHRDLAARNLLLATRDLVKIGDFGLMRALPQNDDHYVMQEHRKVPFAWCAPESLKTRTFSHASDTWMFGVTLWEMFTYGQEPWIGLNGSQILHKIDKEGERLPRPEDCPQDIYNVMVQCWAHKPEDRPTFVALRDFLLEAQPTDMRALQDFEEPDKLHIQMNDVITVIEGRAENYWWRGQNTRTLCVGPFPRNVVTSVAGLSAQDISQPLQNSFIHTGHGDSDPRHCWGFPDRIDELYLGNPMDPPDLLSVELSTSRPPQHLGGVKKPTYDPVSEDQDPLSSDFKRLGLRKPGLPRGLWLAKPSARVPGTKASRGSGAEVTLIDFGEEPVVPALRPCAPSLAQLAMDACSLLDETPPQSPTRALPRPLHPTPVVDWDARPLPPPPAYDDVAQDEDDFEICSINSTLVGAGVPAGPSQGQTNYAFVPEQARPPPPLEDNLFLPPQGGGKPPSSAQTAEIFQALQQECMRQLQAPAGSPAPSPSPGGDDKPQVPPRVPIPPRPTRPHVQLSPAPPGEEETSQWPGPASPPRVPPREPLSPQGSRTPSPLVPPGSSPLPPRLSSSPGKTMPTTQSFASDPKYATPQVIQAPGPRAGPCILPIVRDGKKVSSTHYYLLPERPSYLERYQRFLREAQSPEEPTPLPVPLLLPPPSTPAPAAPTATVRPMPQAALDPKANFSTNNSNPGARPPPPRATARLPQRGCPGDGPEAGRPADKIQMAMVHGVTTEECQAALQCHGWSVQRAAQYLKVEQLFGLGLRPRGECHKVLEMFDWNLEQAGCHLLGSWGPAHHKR
Settings: at 0.1 µM
experimentalEndpoint: inhibition (%)
Just the number in %, nothing appended.

Example entries begin here.
1) Fc1ccc(-c2c(-c3ccncc3)nc3n2CCS3)cc1    0.57
2) O=C(Nc1n[nH]c2nc(-c3ccc(O)cc3)c(Br)cc12)C1CC1    1.69
3) O=C(NCC1CC1)c1ccc(-c2cccc(C(=O)NC3CC3)c2)cc1    0.86

Ask: Report measured inhibition; entry is CN(C)c1ccc2c(c1)/C(=C/Nc1ccc(S(N)(=O)=O)cc1)C(=O)N2
Result: 0.14

====

Molecular target: Tyrosine-protein kinase ABL2 (Homo sapiens)
Conditions: at 1 µM
Description: GSK_PKIS: ARG mean inhibition at 1 uM [Nanosyn]
Property: inhibition; scope: individual compounds
Value expressed in %; do not type the unit.

Solved cases (5 shown):
1. O=C(Nc1n[nH]c2cc(-c3ccccc3)ccc12)C1CC1    31.2
2. C[C@@H](Oc1cc(-n2cnc3ccc(OC4CCN(C)CC4)cc32)sc1C(N)=O)c1ccccc1Cl    2.18
3. COc1cc(Nc2ncc3c(C)nc(-c4cccc(Oc5ccccc5)c4)n3n2)cc(OC)c1OC    0.57
4. CCS(=O)(=O)c1ccc(OC)c(Nc2ncc(-c3ccccc3Cl)o2)c1    24.5
5. CN(c1ccc(NC(=O)Nc2c(Cl)cccc2Cl)cc1)c1ccnc(Nc2cccc(CS(C)(=O)=O)c2)n1    55.1

Ask: Provide one value: measured inhibition of CN(C)CCOc1ccc(-c2cc(-c3ccc4c(c3)CCC4=NO)c(-c3ccncc3)o2)cc1
Result: 18.6

Ask: Annotate the compound Fc1ccc(-c2ncn(CCCN3CCOCC3)c2-c2ccncc2)cc1 with its measured inhibition.
Result: 5.07

Ask: Supply measured inhibition of COc1ccc2ncn(-c3cc(O[C@H](C)c4ccccc4Cl)c(C(N)=O)s3)c2c1 in your reply.
Result: -0.05

Ask: For the compound c1ccc(-c2n[nH]cc2-c2ccnc(-c3ccc(OCCN4CCOCC4)cc3)c2)nc1 , give its measured inhibition value.
Result: 34.1

Ask: Give me measured inhibition, please, for this compound: NC(=O)c1cc(-c2ccc(F)cc2)cc(-c2ccncc2)c1N
Result: 5.07

Ask: Determine its reported inhibition: COc1ccc(-c2ccc3c(NC(=O)C4CC4)n[nH]c3n2)cc1
Result: 8.05

====

Target: Cyclin-dependent kinase 1 (Homo sapiens);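 also: enzyme assay on the CDK1/cyclin B complex, reported as mean percent inhibition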
Settings: at 0.1 µM
Catalogue of inhibition readings, one per entry.
# output: bare number, implied unit %

Here is how some compounds turned out for inhibition.
1. O=C(NCC1CC1)c1ccc(-c2cccc(C(=O)NC3CC3)c2)cc1    -0.46
2. COc1cc(N2CCN(C(C)C)CC2)ccc1Nc1nc(Nc2ccc(F)cc2C(=O)NC[C@@H](O)CO)c2cc[nH]c2n1    -2.84
3. NC(=O)c1ccc(Oc2nccc(-c3c(-c4ccc(F)cc4)ncn3C3CCNCC3)n2)cc1    3.25
4. COc1ccc(C2=C(N3CCc4ccccc43)C(=O)NC2=O)cc1    1.56

Ask: Tell me its inhibition given CN(c1ccc(NC(=O)Nc2c(Cl)cccc2Cl)cc1)c1ccnc(Nc2cccc(CS(C)(=O)=O)c2)n1 as the entry.
Result: 0.58

====

System: Tyrosine-protein kinase ABL1 (Homo sapiens), P00519 [T315I]
Details: at 1 µM
experimentalEndpoint: inhibition (%)
Write the value in % as a bare number.

Ask: State its inhibition: COc1cc2ncn(-c3cc(OCc4ccccc4C(F)(F)F)c(C(C)=O)s3)c2cc1OC
Result: 4.77

Ask: Given CCS(=O)(=O)c1ccc(OC)c(Nc2ncc(-c3ccccc3Cl)o2)c1 , respond with its inhibition.
Result: 11.7

Ask: Provide one value: measured inhibition of CS(=O)(=O)CCNCc1ccc(-c2ccc3ncnc(Nc4ccc(OCc5ccccc5)c(Br)c4)c3c2)o1
Result: 1.57

Ask: Report measured inhibition; entry is COc1cccc(/C=N/Nc2ncnc3c2cnn3-c2cccc(OC)c2)c1
Result: 10.4

Ask: Identify the reported inhibition for the following entry. COc1ccc(-c2ccc3c(NC(=O)C4CC4)n[nH]c3n2)cc1
Result: 21.2

Ask: Output inhibition of C[C@@H](Oc1cc(-n2cnc3ccc(OC4CCN(C)CC4)cc32)sc1C(N)=O)c1ccccc1Cl
Result: 7.51
